target: cysteines in MDA-MB-231 and Ramos cells (Homo sapiens); test: Competitive isoTOP-ABPP in situ (fragment-treated cells); type: cell-based; details: 200 μM, insitu, 231
Classify by measured isoTOP-ABPP ratio O75521_C312: yes if it is equal to or exceeds 1, no if it is smaller.

Identify whether the reported isoTOP-ABPP ratio O75521_C312 of the following compound is 1 or greater: CC(C)CCOCCNC(=O)CCl [compound 27]
yes

Identify whether the reported isoTOP-ABPP ratio O75521_C312 of the following compound is 1 or greater: O=C(CCl)NC12CC3CC(CC(C3)C1)C2 [compound 21]
yes

Identify whether the reported isoTOP-ABPP ratio O75521_C312 of the following compound is 1 or greater: O=C(CCl)N1CCN(S(=O)(=O)c2ccccc2F)CC1 [compound 10]
yes

Identify whether the reported isoTOP-ABPP ratio O75521_C312 of the following compound is 1 or greater: CC1CCc2ccccc2N1C(=O)CCl (stereo not shown) [compound 45]
no

Identify whether the reported isoTOP-ABPP ratio O75521_C312 of the following compound is 1 or greater: O=C(CCl)NCCc1c[nH]c2ccccc12 [compound 13]
no

Identify whether the reported isoTOP-ABPP ratio O75521_C312 of the following compound is 1 or greater: O=C(CCl)NC(=O)NC12CC3CC(CC(C3)C1)C2 [compound 12]
yes

Identify whether the reported isoTOP-ABPP ratio O75521_C312 of the following compound is 1 or greater: C=CC(=O)Nc1cc(F)c(N2CCN(C(=O)OC(C)(C)C)CC2)c(F)c1 [compound 38]
yes

====

molecular target: cysteines in MDA-MB-231 and Ramos cells (Homo sapiens); assay: Competitive isoTOP-ABPP in situ (fragment-treated cells); assay type: cell-based; settings: 200 μM, insitu, 231
Please note: isoTOP-ABPP ratio Q13526_C113 exactly at 0.7 is no. Only values below 0.7 get yes.

Some solved entries appear below for comparison.
[[record]]
compound = "C=CC(=O)Nc1cc(F)c(N2CCN(C(=O)OC(C)(C)C)CC2)c(F)c1"
subject_of_test = "cysteines in MDA-MB-231 and Ramos cells (Homo sapiens)"
classification = "no"

[[record]]
compound = "CC1CCc2ccccc2N1C(=O)CCl (centres unmarked)"
subject_of_test = "cysteines in MDA-MB-231 and Ramos cells (Homo sapiens)"
classification = "no"

[[record]]
compound = "O=C(CCl)N1CCN(S(=O)(=O)c2ccccc2F)CC1"
subject_of_test = "cysteines in MDA-MB-231 and Ramos cells (Homo sapiens)"
classification = "no"

[[record]]
compound = "C=CC(=O)N(Cc1cccnc1)c1cc(C(F)(F)F)cc(C(F)(F)F)c1"
subject_of_test = "cysteines in MDA-MB-231 and Ramos cells (Homo sapiens)"
classification = "yes"

[[record]]
compound = "Cc1ccc(C=C(C#N)C(=O)NCCN2CCOCC2)cc1"
subject_of_test = "cysteines in MDA-MB-231 and Ramos cells (Homo sapiens)"
classification = "yes"


Is 0.7 strictly greater than the compound's reported isoTOP-ABPP ratio Q13526_C113? compound: `CC(C)CCOCCNC(=O)CCl`
yes

Is 0.7 strictly greater than the compound's reported isoTOP-ABPP ratio Q13526_C113? compound: `O=C(CCl)Nc1cccc2ncccc12`
no

Is 0.7 strictly greater than the compound's reported isoTOP-ABPP ratio Q13526_C113? compound: `O=C(CCl)NCCc1c[nH]c2ccccc12`
no

Is 0.7 strictly greater than the compound's reported isoTOP-ABPP ratio Q13526_C113? compound: `O=C(CCl)NC(=O)NC12CC3CC(CC(C3)C1)C2`
yes

====

target: PRMT1 C109 (Q99873) (Homo sapiens, UniProt Q99873); experiment: Competitive isoTOP-ABPP, cell lysates; assay type: binding; conditions: 500 μM, invitro, 231
Sequence (Q99873 whole entry): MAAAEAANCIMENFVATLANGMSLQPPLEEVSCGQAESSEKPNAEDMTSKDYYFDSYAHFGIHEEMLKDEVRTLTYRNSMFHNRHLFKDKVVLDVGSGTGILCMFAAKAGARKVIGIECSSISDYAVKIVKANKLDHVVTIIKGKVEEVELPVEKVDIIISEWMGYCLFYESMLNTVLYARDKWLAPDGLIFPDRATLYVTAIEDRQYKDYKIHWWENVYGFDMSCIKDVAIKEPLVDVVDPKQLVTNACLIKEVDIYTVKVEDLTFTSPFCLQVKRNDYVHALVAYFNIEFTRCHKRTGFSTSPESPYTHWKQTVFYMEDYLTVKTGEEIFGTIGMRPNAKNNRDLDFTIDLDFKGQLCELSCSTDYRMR
Entries and their isoTOP-ABPP ratio, Q99873_C109 values follow.
Please give the numeric answer without any surrounding text.

In the examples that follow, each entry is paired with its recorded isoTOP-ABPP ratio, Q99873_C109.
[[record]]
structure_smiles = "C=CC(=O)N(Cc1cccnc1)c1ccc(Oc2ccccc2)c(C(F)(F)F)c1"
subject_of_test = "PRMT1 C109 (Q99873) (Homo sapiens, UniProt Q99873)"
endpoint_value = 0.9

[[record]]
structure_smiles = "CNS(=O)(=O)C=Cc1ccc2c(ccn2Cc2ccccc2)c1"
subject_of_test = "PRMT1 C109 (Q99873) (Homo sapiens, UniProt Q99873)"
endpoint_value = 1.1

[[record]]
structure_smiles = "O=C(CCl)NC(=O)NC12CC3CC(CC(C3)C1)C2"
subject_of_test = "PRMT1 C109 (Q99873) (Homo sapiens, UniProt Q99873)"
endpoint_value = 1.4

[[record]]
structure_smiles = "O=C(CCl)N1CCN(S(=O)(=O)c2ccccc2F)CC1"
subject_of_test = "PRMT1 C109 (Q99873) (Homo sapiens, UniProt Q99873)"
endpoint_value = 2.3

[[record]]
structure_smiles = "Cn1cc(S(=O)(=O)N2CCOCC2)cc1C(=O)NC(=O)CCl"
subject_of_test = "PRMT1 C109 (Q99873) (Homo sapiens, UniProt Q99873)"
endpoint_value = 20.0

[[record]]
structure_smiles = "O=C(CCl)NCCc1c[nH]c2ccccc12"
subject_of_test = "PRMT1 C109 (Q99873) (Homo sapiens, UniProt Q99873)"
endpoint_value = 1.0


--- query ---
I am curious: what isoTOP-ABPP ratio, Q99873_C109 value has been reported for `C=CC(=O)N(c1ccccc1)c1ccc(Br)cc1` ?
0.9

====

Entries and their isoTOP-ABPP ratio O15294_C758 values follow.
target: cysteines in MDA-MB-231 and Ramos cells (Homo sapiens); test: Competitive isoTOP-ABPP in situ (fragment-treated cells); type: cell-based; conditions: 200 μM, insitu, 231
Please give the numeric answer without any surrounding text.

I am curious: what isoTOP-ABPP ratio O15294_C758 value has been reported for `O=C(CCl)NC(=O)NC12CC3CC(CC(C3)C1)C2` ?
20.0

I am curious: what isoTOP-ABPP ratio O15294_C758 value has been reported for `Cc1ccc(C=C(C#N)C(=O)NCCN2CCOCC2)cc1` ?
0.9

I am curious: what isoTOP-ABPP ratio O15294_C758 value has been reported for `CC(C)CCOCCNC(=O)CCl` ?
1.0

I am curious: what isoTOP-ABPP ratio O15294_C758 value has been reported for `O=C(CCl)NC12CC3CC(CC(C3)C1)C2` ?
1.1

I am curious: what isoTOP-ABPP ratio O15294_C758 value has been reported for `COc1ccccc1OCCNC(=O)CCl` ?
1.0

I am curious: what isoTOP-ABPP ratio O15294_C758 value has been reported for `O=C(CCl)Nc1cccc2ncccc12` ?
1.1

I am curious: what isoTOP-ABPP ratio O15294_C758 value has been reported for CC1CCc2ccccc2N1C(=O)CCl (stereo not drawn) ?
2.9

I am curious: what isoTOP-ABPP ratio O15294_C758 value has been reported for `O=C(CCl)NCCc1c[nH]c2ccccc12` ?
1.0

I am curious: what isoTOP-ABPP ratio O15294_C758 value has been reported for `O=C(CCl)N1CCN(S(=O)(=O)c2ccccc2F)CC1` ?
2.3

====

target: cysteines in MDA-MB-231 and Ramos cells (Homo sapiens); assay: Competitive isoTOP-ABPP in situ (fragment-treated cells); assay type: cell-based; details: 200 μM, insitu, 231
Please note: isoTOP-ABPP ratio P07858_C211 exactly at 2 is Criterion not met. Only values below 2 get Criterion met.

[[record]]
compound = "CC1CCc2ccccc2N1C(=O)CCl (stereo not shown) [compound 45]"
subject_of_test = "cysteines in MDA-MB-231 and Ramos cells (Homo sapiens)"
classification = "Criterion not met"

[[record]]
compound = "C=CC(=O)Nc1cc(F)c(N2CCN(C(=O)OC(C)(C)C)CC2)c(F)c1 [compound 38]"
subject_of_test = "cysteines in MDA-MB-231 and Ramos cells (Homo sapiens)"
classification = "Criterion met"

[[record]]
compound = "Cc1ccc(C=C(C#N)C(=O)NCCN2CCOCC2)cc1 [compound 41]"
subject_of_test = "cysteines in MDA-MB-231 and Ramos cells (Homo sapiens)"
classification = "Criterion met"

[[record]]
compound = "O=C(CCl)N1CCN(S(=O)(=O)c2ccccc2F)CC1 [compound 10]"
subject_of_test = "cysteines in MDA-MB-231 and Ramos cells (Homo sapiens)"
classification = "Criterion not met"

[[record]]
compound = "O=C(CCl)NCCc1c[nH]c2ccccc12 [compound 13]"
subject_of_test = "cysteines in MDA-MB-231 and Ramos cells (Homo sapiens)"
classification = "Criterion met"

[[record]]
compound = "CC(C)CCOCCNC(=O)CCl [compound 27]"
subject_of_test = "cysteines in MDA-MB-231 and Ramos cells (Homo sapiens)"
classification = "Criterion met"


Please find the next compound below.
Is 2 strictly greater than the compound's reported isoTOP-ABPP ratio P07858_C211? compound: O=C(CCl)NC12CC3CC(CC(C3)C1)C2 [compound 21]
Criterion not met
